Measured pIC50 accompanies every entry in the list below.
Biological target: A-Raf kinase (SEQ. ID No: 1) (Homo sapiens (Human), UniProt P10398, Y301D/Y302D)
Sequence (P10398 other isoform, or with tags, fused parts or gaps Y301D (already in the parent)/Y302D (already in the parent)): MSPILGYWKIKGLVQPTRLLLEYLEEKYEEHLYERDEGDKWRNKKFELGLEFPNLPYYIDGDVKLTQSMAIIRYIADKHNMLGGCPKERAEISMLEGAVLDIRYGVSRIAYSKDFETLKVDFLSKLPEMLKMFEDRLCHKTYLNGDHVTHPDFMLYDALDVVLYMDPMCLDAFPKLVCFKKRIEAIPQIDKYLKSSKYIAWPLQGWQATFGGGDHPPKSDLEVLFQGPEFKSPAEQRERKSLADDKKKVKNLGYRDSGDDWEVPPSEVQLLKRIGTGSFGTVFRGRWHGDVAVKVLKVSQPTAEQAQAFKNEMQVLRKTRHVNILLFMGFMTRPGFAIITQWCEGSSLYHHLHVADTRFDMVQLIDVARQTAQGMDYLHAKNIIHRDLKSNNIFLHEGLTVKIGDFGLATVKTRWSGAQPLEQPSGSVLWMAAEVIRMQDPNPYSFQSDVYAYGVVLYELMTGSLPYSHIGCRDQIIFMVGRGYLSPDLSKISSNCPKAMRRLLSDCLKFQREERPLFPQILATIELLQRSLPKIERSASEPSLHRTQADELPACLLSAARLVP
Experiment: Biochemical Assay for A-Raf (1)
Settings: Table J, assay version (1); read-out: ARAF (1) IC50
pIC50: −log10 of the molar value.
Value type: pIC50

{"Compound string": "CNc1cc(-c2cncc(-c3cc(NC(=O)c4ccnc(C(C)(C)C#N)c4)ccc3C)n2)ccn1", "Target under test": "A-Raf kinase (SEQ. ID No: 1) (Homo sapiens (Human), UniProt P10398, Y301D/Y302D)", "Value type": "pIC50", "Val": "5.00 to 6.00"}
{"Compound string": "Cc1ccc(NC(=O)c2ccnc(C(F)(F)F)c2)cc1-c1cncc(-c2ccnc(NC=O)c2)n1", "Target under test": "A-Raf kinase (SEQ. ID No: 1) (Homo sapiens (Human), UniProt P10398, Y301D/Y302D)", "Value type": "pIC50", "Val": "5.00 to 6.00"}
{"Compound string": "Cc1ncc(NC(=O)CC2COC2)cc1-c1nccc(-c2ccnc(NC(=O)C3CC3)c2)n1", "Target under test": "A-Raf kinase (SEQ. ID No: 1) (Homo sapiens (Human), UniProt P10398, Y301D/Y302D)", "Value type": "pIC50", "Val": "5.00 to 6.00"}
{"Compound string": "Cc1ncc(NC(=O)c2ccnc(C(F)(F)F)c2)cc1-c1cccc(-c2ccnc(NC(=O)C3CC3)c2)c1", "Target under test": "A-Raf kinase (SEQ. ID No: 1) (Homo sapiens (Human), UniProt P10398, Y301D/Y302D)", "Value type": "pIC50", "Val": "6.00 to 6.30"}
{"Compound string": "CNC(=O)c1cc(-c2cc(-c3cc(NC(=O)c4ccnc(C(C)(C)C#N)c4)cnc3C)ccn2)ccn1", "Target under test": "A-Raf kinase (SEQ. ID No: 1) (Homo sapiens (Human), UniProt P10398, Y301D/Y302D)", "Value type": "pIC50", "Val": "5.00 to 6.00"}
{"Compound string": "Cc1ccc(NC(=O)c2ccnc(C(C)(C)C#N)c2)cc1-c1ccnc(-c2ccnc3c2CC(=O)N3)c1", "Target under test": "A-Raf kinase (SEQ. ID No: 1) (Homo sapiens (Human), UniProt P10398, Y301D/Y302D)", "Value type": "pIC50", "Val": "5.00 to 6.00"}
{"Compound string": "CC(=O)Nc1cc(-c2cc(-c3cc(NC(=O)c4ccnc(C(F)(F)F)c4)ccc3C)cc(OCCO)n2)ccn1", "Target under test": "A-Raf kinase (SEQ. ID No: 1) (Homo sapiens (Human), UniProt P10398, Y301D/Y302D)", "Value type": "pIC50", "Val": "5.00 to 6.00"}
{"Compound string": "CC(=O)Nc1cc(-c2cc(-c3cc(NC(=O)c4ccnc(C(F)(F)F)c4)c(F)cc3C)ccn2)ccn1", "Target under test": "A-Raf kinase (SEQ. ID No: 1) (Homo sapiens (Human), UniProt P10398, Y301D/Y302D)", "Value type": "pIC50", "Val": "6.00 to 6.30"}
{"Compound string": "Cc1ncc(NC(=O)c2ccnc(C(C)(C)C#N)c2)cc1-c1cccc(-c2ccnc(C(N)=O)c2)c1", "Target under test": "A-Raf kinase (SEQ. ID No: 1) (Homo sapiens (Human), UniProt P10398, Y301D/Y302D)", "Value type": "pIC50", "Val": "5.00 to 6.00"}
{"Compound string": "Cc1ncc(NC(=O)c2cnnc(C3CC3)c2)cc1-c1ccnc(-c2ccnc(NC(=O)C3CC3)c2)n1", "Target under test": "A-Raf kinase (SEQ. ID No: 1) (Homo sapiens (Human), UniProt P10398, Y301D/Y302D)", "Value type": "pIC50", "Val": "5.00 to 6.00"}
{"Compound string": "Cc1ccc(NC(=O)c2ccnc(C(C)(C)C#N)c2)cc1-c1cccc(-c2cc(N)ncn2)c1", "Target under test": "A-Raf kinase (SEQ. ID No: 1) (Homo sapiens (Human), UniProt P10398, Y301D/Y302D)", "Value type": "pIC50", "Val": "5.00 to 6.00"}
{"Compound string": "Cc1ccc(NC(=O)c2ccnc(C(F)(F)F)c2)cc1-c1ccnc(-c2ccnc(N)c2)c1", "Target under test": "A-Raf kinase (SEQ. ID No: 1) (Homo sapiens (Human), UniProt P10398, Y301D/Y302D)", "Value type": "pIC50", "Val": "5.00 to 6.00"}
{"Compound string": "Cc1cc(F)c(NC(=O)c2ccnc(C(C)(C)F)c2)cc1-c1cncc(-c2ccnc(NC(=O)C3CC3)c2)n1", "Target under test": "A-Raf kinase (SEQ. ID No: 1) (Homo sapiens (Human), UniProt P10398, Y301D/Y302D)", "Value type": "pIC50", "Val": "6.30 to 7.00"}
{"Compound string": "CNC(=O)c1cc(-c2cnnc(-c3cc(NC(=O)c4ccc(Cl)c(OC)c4)cnc3C)c2)ccn1", "Target under test": "A-Raf kinase (SEQ. ID No: 1) (Homo sapiens (Human), UniProt P10398, Y301D/Y302D)", "Value type": "pIC50", "Val": "5.00 to 6.00"}
{"Compound string": "Cc1ccc(NC(=O)c2ccnc(C(C)(C)C#N)c2)cc1-c1cccc(-c2ccnc3[nH]ncc23)c1", "Target under test": "A-Raf kinase (SEQ. ID No: 1) (Homo sapiens (Human), UniProt P10398, Y301D/Y302D)", "Value type": "pIC50", "Val": "5.00 to 6.00"}
